- EXPERIMENT SUMMARY: Calcemia assessment in allergic IC mice (colorimetric serum calcium assay)
- Assay type: in vivo, mouse
- CONDITION DESCRIPTION: oral ug/kg: C 3, A 0.1, E 0.3, F 30, G 100, H 1, I 3; elevations p<0.001
MEASURED ENDPOINT: serum calcium levels relative to the vehicle treated control group

COMPOUND | RESULT
CC(=O)OC1C/C(=C/C=C2\CCC[C@]3(C)C(C(C)CCCC(C)(C)O)=CCC23)C[C@@H](OC(C)=O)C1 (stereo partly drawn) [Compound C] | slight elevation
CC(C)(O)CCCC(CCCC(C)(C)O)[C@H]1CC[C@H]2/C(=C/C=C3C[C@@H](O)C[C@H](O)C3)CCC[C@]12C [Compound I] | slight elevation
C=C1/C(=C\C=C2/CCC[C@@]3(C)C2CCC3C2(CCCC(C)(C)O)CC2)CC(OC(C)=O)C[C@@H]1OC(C)=O (stereo partly drawn) [Compound F] | slight elevation
CC(=O)OC1C/C(=C/C=C2\CCC[C@@]3(C)C2CCC3C2(C/C=C/C(O)(C(F)(F)F)C(F)(F)F)CC2)C[C@@H](OC(C)=O)C1 (stereo partly drawn) [Compound E] | slight elevation

Now for another entry.
// C=C1/C(=C\C=C2/CCC[C@]3(C)C(C4(CCCC(C)(C)O)CC4)=CCC23)CC(O)C[C@@H]1O (stereo partly drawn) [Compound H] : serum calcium levels relative to the vehicle treated control group value = slight elevation

Reference source: patent US20080039434A1
